- Test system: M. Bovis BCG ΔMtpA
- Type: cell-based
Readout Name: MIC for M. Bovis BCG ΔMtpA

# example entries with known answers
Nc1ccc(C(=O)O)c(O)c1 >8 µg/mL
CC[C@H]1OC(=O)[C@H](C)[C@@H](O[C@H]2C[C@@](C)(OC)[C@@H](O)[C@H](C)O2)[C@H](C)[C@@H](O[C@@H]2O[C@H](C)C[C@H](N(C)C)[C@H]2O)[C@](C)(OC)C[C@@H](C)C(=O)[C@H](C)[C@@H](O)[C@]1(C)O >2 µg/mL

Write down the reported MIC for M. Bovis BCG ΔMtpA of N[C@@H]1CON=C1O , test system: M. Bovis BCG ΔMtpA.
8 µg/mL

====

- Test system: M. Bovis BCG ΔMtpA
- Format: cell-based
Reported MIC for M. Bovis BCG ΔMtpA values for the following molecules.

# example entries with known answers
Molecule	Assay System	Val
NNC(=O)c1ccncc1 [Isoniazid]	M. Bovis BCG ΔMtpA	>1 µg/mL
CC[C@@H](CO)NCCN[C@@H](CC)CO [Ethambutol]	M. Bovis BCG ΔMtpA	>1 µg/mL

Would you kindly look at the next entry?
Write down the reported MIC for M. Bovis BCG ΔMtpA of CN[C@H](CC(C)C)C(=O)N[C@H]1C(=O)N[C@@H](CC(N)=O)C(=O)N[C@H]2C(=O)N[C@H]3C(=O)N[C@H](C(=O)N[C@H](C(=O)O)c4cc(O)cc(O)c4-c4cc3ccc4O)[C@H](O)c3ccc(c(Cl)c3)Oc3cc2cc(c3O[C@@H]2O[C@H](CO)[C@@H](O)[C@H](O)[C@H]2O[C@H]2C[C@](C)(N)[C@H](O)[C@H](C)O2)Oc2ccc(cc2Cl)[C@H]1O [Vancomycin] , test system: M. Bovis BCG ΔMtpA.
20 µg/mL
